# Target Under Test: recombinant human Meningioma Expressed Antigen 5 (MGEA5), also referred to as O-GlcNAcase (OGA) (Homo sapiens, UniProt O60502)
# Construct: Full length OGA enzyme was purchased at OriGene (cat # TP322411); purchased OriGene TP322411
# Test Protocol: OGA biochemical assay: inhibition of FM-GlcNAc hydrolysis, fluorescence; protocol A (10 nM OGA, 1 h) or protocol B (2 nM OGA, 6 h)
# Measurement Parameters: Enzymatic protocol A (10 nM OGA, 1 h)
Measurement Type: Emax (%)

[[record]]
compound = "CC(=O)Nc1ncc(S(=O)(=O)N2CCOC(c3cc(C(F)F)n4ncnc4n3)C2)s1 (stereo not drawn)"
observed_result = 101

[[record]]
compound = "CC(=O)Nc1ncc(S(=O)(=O)N2CCNC(c3cc(C)nc4ncnn34)C2)s1 (stereo not drawn)"
observed_result = 100

[[record]]
compound = "CC(=O)Nc1ncc(S(=O)(=O)N2CCC[C@H](c3ccnc4ncnn34)C2)s1"
observed_result = 107

[[record]]
compound = "CC(=O)Nc1ncc(CN2CCC[C@@H](c3cc(C(F)F)n4ncnc4n3)C2)s1"
observed_result = 103

[[record]]
compound = "CC(=O)Nc1ncc(S(=O)(=O)N2CCCC(c3cc(C)nc4ncnn34)C2)s1 (racemic)"
observed_result = 96

[[record]]
compound = "CC(=O)Nc1ncc(S(=O)(=O)N2CCC3(CC3)C(c3cc(C(F)F)nc4ncnn34)C2)s1 (stereo not drawn)"
observed_result = 93.8

[[record]]
compound = "CC(=O)Nc1ncc(S(=O)(=O)N2CC[C@H](C)[C@@H](c3cc(C(F)F)nc4ncnn34)C2)s1"
observed_result = 82.2

[[record]]
compound = "CC(=O)Nc1ncc(CN2CCCC(c3cc4cc[nH]c4nc3C)C2)s1 (racemic)"
observed_result = 101

[[record]]
compound = "CC(=O)Nc1ncc(S(=O)(=O)N2CCC(c3cc(C)nc4ncnn34)C2)s1 (racemic)"
observed_result = 89

[[record]]
compound = "CC(=O)Nc1ncc(S(=O)(=O)N2CCCC(c3cc(C(F)F)nc4nccn34)C2)s1 (racemic)"
observed_result = 99.4

[[record]]
compound = "CC(=O)Nc1ncc(S(=O)(=O)N2CCCC(C)(c3cc(C(F)F)nc4ncnn34)C2)s1 (stereo not drawn)"
observed_result = 98.7

[[record]]
compound = "CC(=O)Nc1ncc(S(=O)(=O)N2CCCCC(c3ccnc4ncnn34)C2)s1 (stereo not drawn)"
observed_result = 95.4

[[record]]
compound = "CC(=O)Nc1ncc(S(=O)(=O)N2CCNC(c3cc(C(F)F)n4ncnc4n3)C2)s1 (stereo not drawn)"
observed_result = 93.1

[[record]]
compound = "CC(=O)Nc1ncc(CN2CCOC(c3cc(C(F)F)n4ncnc4n3)C2)s1 (stereo not drawn)"
observed_result = 88.4

[[record]]
compound = "CC(=O)Nc1ncc(CN2CCC[C@H](c3ccnc4ncnn34)C2)s1"
observed_result = 101

[[record]]
compound = "CC(=O)Nc1ncc(CN2CCOC(c3cc(C)nc4ncnn34)C2)s1 (stereo not drawn)"
observed_result = 98.3

[[record]]
compound = "CC(=O)Nc1ncc(S(=O)(=O)N2CCCC(c3cc(C(F)F)n4ccnc4n3)C2)s1 (racemic)"
observed_result = 102

[[record]]
compound = "CC(=O)Nc1ncc(S(=O)(=O)N2CCCC(c3ccnc4nccn34)C2)s1 (racemic)"
observed_result = 98.4

[[record]]
compound = "CC(=O)Nc1ncc(CN2CCOC(c3cc(C(F)F)nc4ncnn34)C2)s1 (stereo not drawn)"
observed_result = 97.4

[[record]]
compound = "CC(=O)Nc1ncc(CN2CCC3(CC3)C(c3cc(C(F)F)nc4ncnn34)C2)s1 (stereo not drawn)"
observed_result = 101

[[record]]
compound = "CC(=O)Nc1ncc(CN2CC[C@H](C)[C@@H](c3cc(C(F)F)nc4ncnn34)C2)s1"
observed_result = 92.5

[[record]]
compound = "CC(=O)Nc1ncc(S(=O)(=O)N2CCO[C@H](c3ccnc4ncnn34)C2)s1"
observed_result = 102

[[record]]
compound = "CC(=O)Nc1ncc(S(=O)(=O)N2CCC[C@@H](c3ccnc4ncnn34)C2)s1"
observed_result = 94.2

[[record]]
compound = "CC(=O)Nc1ncc(CN2CCCC(c3cc(C(F)F)nc4ncnn34)C2)s1 (racemic)"
observed_result = 101

[[record]]
compound = "CC(=O)Nc1ncc(S(=O)(=O)N2CCNC(c3cc(C(F)F)nc4ncnn34)C2)s1 (stereo not drawn)"
observed_result = 102

[[record]]
compound = "CC(=O)Nc1ncc(S(=O)(=O)N2CCC[C@@H](c3cc(C(F)F)n4ncnc4n3)C2)s1"
observed_result = 99.1

[[record]]
compound = "CC(=O)Nc1ncc(S(=O)(=O)N2CCOC(c3cc(C)nc4ncnn34)C2)s1 (racemic)"
observed_result = 103

[[record]]
compound = "CC(=O)Nc1ncc(S(=O)(=O)N2CCO[C@@H](c3ccnc4ncnn34)C2)s1"
observed_result = 103

[[record]]
compound = "CC(=O)Nc1ncc(CN2CCCC(c3cc(C(F)F)nc4nccn34)C2)s1 (stereo not drawn)"
observed_result = 102

[[record]]
compound = "CC(=O)Nc1ncc(S(=O)(=O)N2CCOC(c3cc(C(F)(F)F)nc4ncnn34)C2)s1 (stereo not drawn)"
observed_result = 100

[[record]]
compound = "CC(=O)Nc1ncc(S(=O)(=O)N2CCCC(c3cc(C(F)F)nc4ncnn34)C2)s1 (racemic)"
observed_result = 101

[[record]]
compound = "CC(=O)Nc1ncc(CN2CCCC(c3cc(C(F)F)n4ccnc4n3)C2)s1 (racemic)"
observed_result = 102

[[record]]
compound = "CC(=O)Nc1ncc(S(=O)(=O)N2CCOC(c3cc(C(F)F)nc4ncnn34)C2)s1 (stereo not drawn)"
observed_result = 101


* * *

# Target Under Test: OGA (Homo sapiens, UniProt O60502)
# Construct: HEK293 cells inducible for P301L mutant human Tau (isoform 2N4R) were established at Janssen; endogenous in cells
# Sequence (O60502 1-916): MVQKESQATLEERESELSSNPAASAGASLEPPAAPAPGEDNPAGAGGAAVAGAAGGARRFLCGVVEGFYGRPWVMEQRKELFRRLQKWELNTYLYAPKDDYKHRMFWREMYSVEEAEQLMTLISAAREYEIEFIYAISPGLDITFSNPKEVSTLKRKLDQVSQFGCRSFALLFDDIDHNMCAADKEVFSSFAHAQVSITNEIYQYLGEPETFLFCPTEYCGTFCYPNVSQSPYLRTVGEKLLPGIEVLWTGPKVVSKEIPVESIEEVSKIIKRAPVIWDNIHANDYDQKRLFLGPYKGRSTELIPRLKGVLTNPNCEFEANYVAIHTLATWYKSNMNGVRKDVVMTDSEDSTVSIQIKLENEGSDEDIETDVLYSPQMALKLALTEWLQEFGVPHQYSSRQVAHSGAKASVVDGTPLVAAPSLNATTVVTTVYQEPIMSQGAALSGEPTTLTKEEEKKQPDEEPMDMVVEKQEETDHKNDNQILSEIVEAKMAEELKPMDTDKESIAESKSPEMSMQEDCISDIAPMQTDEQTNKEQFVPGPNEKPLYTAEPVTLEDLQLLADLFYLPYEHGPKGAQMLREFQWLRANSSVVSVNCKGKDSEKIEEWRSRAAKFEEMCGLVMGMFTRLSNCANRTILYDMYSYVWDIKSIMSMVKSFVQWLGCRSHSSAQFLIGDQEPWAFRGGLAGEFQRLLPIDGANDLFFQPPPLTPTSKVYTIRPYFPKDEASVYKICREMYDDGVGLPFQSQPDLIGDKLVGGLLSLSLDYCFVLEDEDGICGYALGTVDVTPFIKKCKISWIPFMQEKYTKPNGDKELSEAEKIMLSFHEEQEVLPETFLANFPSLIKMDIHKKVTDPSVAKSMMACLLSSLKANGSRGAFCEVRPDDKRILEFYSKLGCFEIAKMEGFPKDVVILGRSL
# Test Protocol: OGA cellular assay: immunocytochemical detection of O-GlcNAcylated proteins in HEK293 cells inducible for P301L mutant human Tau
pEC50: −log10 of the molar value.
Catalogue of molecules with associated pEC50
Measurement Type: pEC50

[[record]]
molecule = "CC(=O)Nc1ncc(CN2CCCC(c3nc(C)cc4cc[nH]c34)C2)s1 (centres unmarked) [Product 91]"
comparison_operator = "="
observed_result = 7.35

[[record]]
molecule = "CC(=O)Nc1ncc(CN2CC[C@H](Cc3cncc4nccn34)C2)s1 [Product 108]"
comparison_operator = "="
observed_result = 7.01

[[record]]
molecule = "CC(=O)Nc1ncc(S(=O)(=O)N2CCOC(c3cc(C(F)F)nc4ncnn34)C2)s1 (centres unmarked) [Product 33]"
comparison_operator = "<"
observed_result = 5.00

[[record]]
molecule = "CC(=O)Nc1ncc(CN2CC[C@H](Cc3cccc4nccn34)C2)s1 [Product 107]"
comparison_operator = "="
observed_result = 7.26

[[record]]
molecule = "CC(=O)Nc1ncc(CN2CCCC(c3cc(C(F)F)nc4ncnn34)C2)s1 (racemic) [Product 13]"
comparison_operator = "="
observed_result = 7.45

